interaction score by entry:
Target: T1, 4H1597-AA
T1 chain: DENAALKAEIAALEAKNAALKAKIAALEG
Experiment: two-hybrid library CCmax;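 note: natural log of median RNA to DNA barcode read ratio; higher means stronger binding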
Details: mean of both orientations
Kindly provide the number alone.

A selection of reference data follows.
>  <Binder>
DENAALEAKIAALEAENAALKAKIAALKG [4H1310-AA]

>  <interaction score>
0.746

$$$$
>  <Binder>
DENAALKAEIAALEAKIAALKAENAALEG [4H1579-AA]

>  <interaction score>
-0.651

$$$$

Ask: For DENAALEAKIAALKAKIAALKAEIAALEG [4H1385-AA] , write its interaction score.
Result: -0.816

Ask: For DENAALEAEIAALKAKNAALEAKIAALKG [4H1142-AA] , write its interaction score.
Result: 0.572

Ask: For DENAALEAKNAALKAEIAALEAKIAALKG [4H1478-AA] , write its interaction score.
Result: -0.494
